Experiment: NCI Yeast Anticancer Drug Screen. Data for the mec2-1 strain (AID 157)
Conditions: S. cerevisiae mec2-1 strain, at 50.0 µM, hits give high values
Compounds without any hit were thinned out: in the full panel of roughly 79,000, 15% have a hit.
Please go through the items and note down their growth inhibition.
Answers are plain numbers, in %.

Examples with their reported growth inhibition follow.
{"Compound": "CCCCCCCCCCCCOc1ccccc1C=O", "growth inhibition, %": -29.8}
{"Compound": "COC(=O)C1=CCCC2CN3CCc4c([nH]c5ccccc45)C3CC12 (stereo not drawn)", "growth inhibition, %": -7.8}
{"Compound": "CC(C)c1nc(-c2ccccc2)c(-c2ccccc2)[nH]1", "growth inhibition, %": 13.1}
{"Compound": "O=C(CN1CCOCC1)Nc1cccc(C(F)(F)F)c1", "growth inhibition, %": -31.4}
{"Compound": "CCCCCCCCCOCC(O)COc1ccccc1[N+](=O)[O-] (stereo not drawn)", "growth inhibition, %": -15.9}
{"Compound": "C#Cc1c(-c2c[nH]c3ccccc23)ccc[n+]1C", "growth inhibition, %": -36.1}
{"Compound": "O=C(/C=N/O)Nc1cc(Cl)ccc1Cl", "growth inhibition, %": 15.4}
{"Compound": "Cc1coc2c1C(OC(=O)C(C)C)C1(C)C(C)CCC(O)C1C2=O (stereo not drawn)", "growth inhibition, %": -6.4}

For every listed record, write down its growth inhibition.
1. Cc1ccc(/C=C2/N=C(N/N=C\c3ccccc3)NC2=O)cc1
2. COC(=O)C(=O)C(C(=O)C(=O)Nc1ccc(Cl)c(Cl)c1)c1nc2ccc(C(=O)c3ccccc3)cc2[nH]c1=O (stereo not drawn)
3. C[C@@H]1C[C@@H]2OC(=O)[C@]3(C)[C@H]2[C@@H](OC3(C)O)[C@]2(C)C(=O)C=C[C@@H]12 (stereo partly drawn)

*A*
14.9
-9.65
-45.6

---

Please go through the items and note down their growth inhibition.
Experiment: NCI Yeast Anticancer Drug Screen. Data for the mec2-1 strain (AID 157)
Settings: S. cerevisiae mec2-1 strain, at 50.0 µM, hits give high values
Compounds without any hit were thinned out: in the full panel of roughly 79,000, 15% have a hit.
Answers are plain numbers, in %.

{"Compound": "COC(=O)/C(=N\\NC(=S)NN)C(C(=O)OC)C(=O)C(=O)Nc1cccc(C(F)(F)F)c1 (centres undefined)", "Measurement": 1.4}
{"Compound": "COc1ccc(/C=C/C(=O)c2ccc(Cl)cc2)c(OC)c1", "Measurement": -11.9}

For every listed record, write down its growth inhibition.
1. Cc1ccc(/C=N/N2C(=O)c3ccccc3C2=O)cc1
2. O=C1c2ccccc2-c2c1c1ccccc1c(=O)n2-c1cccnc1

*A*
1: -43.1; 2: 6.95

---

Assay: NCI Yeast Anticancer Drug Screen. Data for the rad50 strain (AID 155);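 further: 0% = growth of vehicle-only cultures of the same strain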
Conditions: S. cerevisiae rad50 strain growth inhibition; at 50.0 µM; hits give high values
About 79,000 compounds went through this panel and 15% of them were active in at least one assay; those are over-represented in the sample as a whole.
Please go through the items and note down their growth inhibition.
Numbers only, in %.

{"Compound": "CCOC(=O)c1nc2cc(C)c(C)cc2[nH]c1=O", "growth inhibition / %": 5.45}

For every listed record, write down its growth inhibition.
1. CCCCCCCCCC(O)CC(=O)c1c(O)cccc1O (centres undefined)
2. COc1ccc(NC(=S)N(C)C)cc1
3. C=CCOc1cccc(OCC=C)c1C
4. COC(=O)C(C)CN1CC(C)OC(C)C1 (centres undefined)
5. CCN(CC)C(C(=O)Nc1ccccc1)C(=O)Nc1ccccc1
6. Fc1ccccc1Nc1n[nH]c(=S)s1
7. O=[N+]([O-])c1ccc2nc3c(nc2c1)-c1cccc2cccc-3c12
8. COC(=O)C1=CCCC2CN3CCc4c([nH]c5ccccc45)C3CC12 (centres undefined)

*A*
1: 69.8; 2: 19.5; 3: -14.9; 4: -25.2; 5: 3.7; 6: 55.9; 7: 2.15; 8: 13.8

For every listed record, write down its growth inhibition.
1. COc1ccc2cc1Oc1ccc(cc1)C[C@@H]1c3cc(c(OC)cc3CCN1C)Oc1c(OC)c(OC)cc3c1[C@H](C2)N(C)CC3
2. CCCCCCCCCC(O)CCCCC (centres undefined)
3. CC(=O)NS(=O)(=O)c1ccc2sc(C)nc2c1
4. Cc1ccc2oc(C)[n+](CCC(=O)O)c2c1
5. CN(C)/C=C/C(=O)c1ccccc1[N+](=O)[O-]
6. COc1c(O)ccc(C2=Cc3ccc(O)cc3OC2)c1OC
7. Cc1ccccc1Nc1n[nH]c(=S)s1
8. CCN(CC)C(=O)c1cccnc1

*A*
1: 22.1; 2: -1.85; 3: -32; 4: 15.7; 5: 16.7; 6: 80.2; 7: 46.1; 8: 0.8
